Tested on: HOP-92 NSCLC
assayExplanation: NCI-60 one-dose screen, 48 h (100 = growth as untreated, 0 = no growth, -100 = all killed)
studyConditions: 10 µM unless noted
This is part of a sample that, as a whole, favours compounds with a hit. Of some 83,000 tested, about 20% had one in any assay.
This section presents compounds with their documented growth values.

{"compound": "COc1ccc(-c2nc(SC)nc(N3CCOCC3)c2C#N)cc1", "growth [%]": 71.2}
{"compound": "ClCC1(Cn2cnc3c(Cl)nc(Cl)nc32)COC1", "growth [%]": 73.1}
{"compound": "COc1ccc(C(=O)c2cc3c(N)c(C(=O)Nc4cccc(Cl)c4)sc3nc2C)cc1", "growth [%]": 86.9}
{"compound": "CC(=O)OCC(=O)[C@@]1(O)CC[C@H]2[C@@H]3CC(=C(Br)Br)C4=CC(=O)CC[C@]4(C)[C@H]3C(=O)C[C@@]21C", "growth [%]": 87.3}
{"compound": "CCN(CC)CCOC(COc1cc(C)cc(C)c1)COc1cc(C)cc(C)c1", "growth [%]": 22.7}
{"compound": "COc1ccc(C(O)c2cc3c(N)c(C(=O)Nc4ccc(Br)cc4)sc3nc2C)cc1 (configuration not stated)", "growth [%]": 44.1}
{"compound": "C=C(C)[C@@H]1CC[C@]2(C(=O)O)CC[C@]3(C)[C@H](CC[C@@H]4[C@@]5(C)C[C@@H](CC#Cc6ccc(Br)cc6)C(=O)C(C)(C)[C@@H]5CC[C@]43C)[C@@H]12", "growth [%]": 65.8}
{"compound": "Cn1c(COC(=O)NCCn2ccnc2)nc2c(N3CCOCC3)nc(-c3ccccc3)nc21", "growth [%]": -75.2}
{"compound": "COc1cc(OC)cc(C2C3=C(COC3=O)Nc3cc(OC)ccc32)c1 (configuration not stated)", "growth [%]": 52.6}
{"compound": "CCN(CCNc1cc(OC)cc2cccnc12)CCc1ccccc1", "growth [%]": 77.2}
{"compound": "O=S(=O)(NCCNc1nccc(-c2c(-c3cccc(F)c3)nc3occn23)n1)c1cccc2ccccc12", "growth [%]": 47}
{"compound": "C[C@H]1[C@H](C)CC[C@]2(CO)CC[C@]3(C)C(=CC[C@@H]4[C@@]5(C)Cc6c([nH]c7ccccc67)C(C)(C)[C@@H]5CC[C@]43C)[C@H]12", "growth [%]": 101}

* * *

System: SK-MEL-2 melanoma
assayExplanation: NCI-60 one-dose screen, 48 h (100 = growth as untreated, 0 = no growth, -100 = all killed)
studyConditions: 10 µM unless noted
The panel holds about 83,000 compounds, 20% with a hit somewhere; the sample as a whole holds those more often.
Reported growth values for a set of compounds

{"compound": "CC1(C)NCCC[C@]2(C)[C@H]3CC=C4[C@@H]5C[C@@](C)(CO)CC[C@]5(C)CC[C@@]4(C)[C@]3(C)CC[C@@H]12", "systemUnderTest": "SK-MEL-2 melanoma", "growth / %": 48.4}
{"compound": "Cc1ccc(-c2csc(/N=C3\\C(=O)Nc4ccccc43)n2)cc1", "systemUnderTest": "SK-MEL-2 melanoma", "growth / %": -51.2}
{"compound": "Cc1ccc2[nH]c(=S)n(-c3ccc(S(=O)(=O)Nc4ccc(Cl)nn4)cc3)c(=O)c2c1", "systemUnderTest": "SK-MEL-2 melanoma", "growth / %": 106}
{"compound": "O=C(O)CNC(=O)CN1C(=O)c2ccccc2C1=O", "systemUnderTest": "SK-MEL-2 melanoma", "growth / %": 114}
{"compound": "CS(=O)(=O)OCCN(CCOS(C)(=O)=O)c1ccc(/C=N/Nc2ccc([N+](=O)[O-])cc2[N+](=O)[O-])cc1", "systemUnderTest": "SK-MEL-2 melanoma", "growth / %": 118}
{"compound": "Clc1ccc(C2CC(c3cccc(Nc4ccncc4)c3)=NN2c2cc(Cl)cc(Cl)c2)cc1 (stereo not given)", "systemUnderTest": "SK-MEL-2 melanoma", "growth / %": 107}
{"compound": "Cc1nccc2c3ccc(OCc4cn(-c5ccc(Cl)cc5)nn4)cc3n(CCCc3ccccc3)c12", "systemUnderTest": "SK-MEL-2 melanoma", "growth / %": 90.8}
{"compound": "CCNC(=O)c1[nH]cc(-c2ccc(OC)cc2)c1-c1cc(OC)c(OC)c(OC)c1", "systemUnderTest": "SK-MEL-2 melanoma", "growth / %": 67.5}
{"compound": "COc1ccc(CC(C)=C(c2ccc(OCCN(C)C)cc2)c2ccc(OCCN(C)C)cc2)cc1", "systemUnderTest": "SK-MEL-2 melanoma", "growth / %": 108}
{"compound": "O=C(Nc1nc2ccc(C(=O)N3CCN(c4ccc(Cl)c(Cl)c4)CC3)cc2s1)c1ccc(NCCc2ccccc2)c([N+](=O)[O-])c1", "systemUnderTest": "SK-MEL-2 melanoma", "growth / %": 104}
{"compound": "COc1cc(Nc2cc(O)c3c(=O)cc(-c4ccccc4)oc3c2)cc(OC)c1", "systemUnderTest": "SK-MEL-2 melanoma", "growth / %": 13.2}
{"compound": "COc1ccc(NC(=O)c2sc3nc(C)c(C(=O)CCc4cccc(OC)c4)cc3c2N)cc1", "systemUnderTest": "SK-MEL-2 melanoma", "growth / %": 53.2}
{"compound": "Cc1ccc(Nc2cc(=S)nc(N)[nH]2)cc1C", "systemUnderTest": "SK-MEL-2 melanoma", "growth / %": 99.9}
{"compound": "COc1cc(OC)c(/C=C/C(=O)c2ccc(Nc3ncnc4ccccc34)cc2)c(OC)c1", "systemUnderTest": "SK-MEL-2 melanoma", "growth / %": 7.01}
{"compound": "Cc1cc2cc3cc(C)c(N)cc3[n+](C)c2cc1N", "systemUnderTest": "SK-MEL-2 melanoma", "growth / %": -21.9}
{"compound": "COc1ccccc1/C=C1\\Oc2cc(OCCCN3CCCC3)ccc2C1=O", "systemUnderTest": "SK-MEL-2 melanoma", "growth / %": 102}
{"compound": "c1ccc(CCSc2ncnc3nc[nH]c23)cc1", "systemUnderTest": "SK-MEL-2 melanoma", "growth / %": 53.6}
{"compound": "COc1ccccc1/C=C1\\COc2ccc(-c3ccccc3)cc2C1=O", "systemUnderTest": "SK-MEL-2 melanoma", "growth / %": 44.7}
{"compound": "O=C(N=Nc1c(O)[nH]c2ccc(F)cc12)c1cc2ccccc2[nH]1", "systemUnderTest": "SK-MEL-2 melanoma", "growth / %": 91}
{"compound": "COc1ccc(NC(=O)c2sc3nc(C)c(C(O)c4ccc(OC)cc4)cc3c2N)cc1 (stereo not given)", "systemUnderTest": "SK-MEL-2 melanoma", "growth / %": 45.6}
{"compound": "CN(Cc1ccccc1)c1nc(Cl)c(C2CC(c3ccc(Cl)cc3)=Cc3[nH][nH]c(=O)c32)s1 (stereo not given)", "systemUnderTest": "SK-MEL-2 melanoma", "growth / %": 99.7}
{"compound": "COc1ccccc1N1CCN(C(=O)c2ccc3nc(NC(=O)c4ccc(NCCc5ccccc5)c([N+](=O)[O-])c4)sc3c2)CC1", "systemUnderTest": "SK-MEL-2 melanoma", "growth / %": 93.4}
{"compound": "CCCCCCOc1ccc(/C=N/Nc2cc(C)nc3ccc(Br)cc23)cc1", "systemUnderTest": "SK-MEL-2 melanoma", "growth / %": -14}
{"compound": "CCCCCCCCOc1ccc(/C=N/Nc2cc(C)nc3ccc(Cl)cc23)cc1", "systemUnderTest": "SK-MEL-2 melanoma", "growth / %": 95.6}
{"compound": "CC(C)CCSc1nc(NNC(N)=O)c(C#N)c(-c2ccccc2)n1", "systemUnderTest": "SK-MEL-2 melanoma", "growth / %": 107}
{"compound": "CCNNC(=O)[C@@H]1[C@H](c2cc(OC)c(OC)c(OC)c2)c2cc3c(cc2[C@H](O)[C@H]1CO)OCO3", "systemUnderTest": "SK-MEL-2 melanoma", "growth / %": 21.6}
{"compound": "O=S(=O)(NCCCNc1nccc(-c2c(-c3ccccc3)nc3occn23)n1)c1ccc(Cl)cc1", "systemUnderTest": "SK-MEL-2 melanoma", "growth / %": 88.3}
{"compound": "c1cnc2nc3c(cc2c1)oc1ccccc13", "systemUnderTest": "SK-MEL-2 melanoma", "growth / %": 101}
{"compound": "COc1cc2c(cc1[N+](=O)[O-])-c1ccc([N+](=O)[O-])cc1/C2=N/NC(N)=S", "systemUnderTest": "SK-MEL-2 melanoma", "growth / %": 87.8}
{"compound": "CC(C)CN(C(=O)c1ccc(Cl)cc1)c1c(N)n(CC(C)C)c(=O)[nH]c1=O", "systemUnderTest": "SK-MEL-2 melanoma", "growth / %": 96.4}
